- PROTOCOL: melting temperature; fluorescence melt of hairpins on a sequencing array, two-state fit, raised by 9.35 °C to match UV melts
- RUN PARAMETERS: sodium 0.088 M
Rule for this label: YES means Tm is less than 50 °C; NO means Tm is at least 50 °C.

Here are 3 sequences together with their reported answers.
# SEQUENCE, CATEGORY
records = [
    ("GTCAATCCGAAAGGAGAC (((..(((....))))))", "YES"),
    ("GCACCGCGAAAGCCTTGC (((..((....))..)))", "YES"),
    ("GATCACTTGGTGATC ((((((...))))))", "NO"),
]

Asked: Strictly below 50 °C in Tm? GGCATCGGAAACGATGTC (.(((((....))))).)
Given back: NO

Asked: Strictly below 50 °C in Tm? GCATCCGGAAACAGATGC (((((.(....).)))))
Given back: YES

Asked: Strictly below 50 °C in Tm? GTGCTTGGAAACAAACAC (((.(((....))).)))
Given back: YES

Asked: Strictly below 50 °C in Tm? CGAACGGAAACGTTATCG ((((((....)))..)))
Given back: YES

Asked: Strictly below 50 °C in Tm? GCTCACGGAAACGTGAAC (.(((((....))))).)
Given back: YES

Asked: Strictly below 50 °C in Tm? GTACTCGAAAGAGTAC ((((((....))))))
Given back: NO

Asked: Strictly below 50 °C in Tm? GCAGTTGGAAACAGCTGC ((((.((....)).))))
Given back: NO

* * *

- PROTOCOL: folding enthalpy; higher = less favourable; fluorescence melt of hairpins on a sequencing array, two-state fit
- RUN PARAMETERS: sodium 0.088 M
// reported folding enthalpy per item
Just the number please, in kJ/mol, no unit attached.

These recorded examples may help you get a feel for the data.
# SEQUENCE, UNIT NAME, folding enthalpy
rows = [
    ("GTGATTTCGAAAGAACAC (((..(((....))))))", "kJ/mol", -95.6),
    ("GGAGCTGGAAACGGCTCC (((((.(....).)))))", "kJ/mol", -202),
]

Asked: Tell us which folding enthalpy value is on record for GGGATATCGAAAGATCCC (((..(((....))))))
Given back: -117

* * *

- PROTOCOL: folding enthalpy; higher = less favourable; fluorescence melt of hairpins on a sequencing array, two-state fit
- RUN PARAMETERS: sodium 0.088 M
Each entry falls into one class according to its folding enthalpy; the ranges are lower band = under -30 kcal/mol, central band = from -30 kcal/mol up to -20 kcal/mol, upper band = -20 kcal/mol and over

Here are 3 sequences together with their reported answers.
# SEQUENCE, CATEGORY
records = [
    ("GCCTTGCGAAAGCTCGGC (((..((....))..)))", "central band"),
    ("GATCCGCCAACGGATC ((((((....))))))", "lower band"),
    ("GATCACCGTGTGATC ((((((...))))))", "lower band"),
]

Asked: Just checking, what class would you give GCCAGCGCGAAAGCGGGC (((..(((....)))))) here?
Given back: upper band

Asked: Just checking, what class would you give GTACCACGAAAGTGATAC (((.(((....))).))) here?
Given back: central band

Asked: Just checking, what class would you give GATCATCCGATGATC ((((((...)))))) here?
Given back: lower band

* * *

- PROTOCOL: folding enthalpy; higher = less favourable; fluorescence melt of hairpins on a sequencing array, two-state fit
- RUN PARAMETERS: sodium 0.088 M
Record Condition met whenever folding enthalpy is at -30 kcal/mol or higher; record Condition not met when lower.

# SEQUENCE, CATEGORY
rows = [
    ("GATCGGACTCCGATC ((((((...))))))", "Condition not met"),
    ("GATTATGGAAACATGATC (((.(((....))).)))", "Condition not met"),
    ("GAACGACGAAAGTCATTC (((.(((....))).)))", "Condition met"),
    ("GGATCACGAAAGTGTTCC (((.(((....))).)))", "Condition not met"),
    ("GGCTCCGAAAGGATAGCC ((((((....)))..)))", "Condition not met"),
    ("GCGTCCGCACGC ((((....))))", "Condition met"),
    ("GGGCACGGAAACGCACCC (((..((....))..)))", "Condition met"),
    ("GAGGAGACGAAAGTCCTC (((..(((....))))))", "Condition met"),
]

Asked: Determine whether measured folding enthalpy meets or exceeds -30 kcal/mol for GGACCCCCGAAAGGGTCC (((..(((....))))))
Given back: Condition not met

Asked: Determine whether measured folding enthalpy meets or exceeds -30 kcal/mol for GCTTAGCGAAAGCTAGGC ((.((((....)))).))
Given back: Condition met

Asked: Determine whether measured folding enthalpy meets or exceeds -30 kcal/mol for GCGTGGCGAAAGCCCTGC ((..(((....)))..))
Given back: Condition met

Asked: Determine whether measured folding enthalpy meets or exceeds -30 kcal/mol for GATCGTAATGACGATC ((((((....))))))
Given back: Condition not met

Asked: Determine whether measured folding enthalpy meets or exceeds -30 kcal/mol for GTAGGGAAACCTAC (((((....)))))
Given back: Condition met

Asked: Determine whether measured folding enthalpy meets or exceeds -30 kcal/mol for TGCAAGAAATTGCA (((((....)))))
Given back: Condition met

Asked: Determine whether measured folding enthalpy meets or exceeds -30 kcal/mol for GATCCTATGGAGGATC ((((((....))))))
Given back: Condition not met

Asked: Determine whether measured folding enthalpy meets or exceeds -30 kcal/mol for GGTGGGTCGAAAGACACC (((..(((....))))))
Given back: Condition met

Asked: Determine whether measured folding enthalpy meets or exceeds -30 kcal/mol for GCGTCTGGACGC ((((....))))
Given back: Condition not met

Asked: Determine whether measured folding enthalpy meets or exceeds -30 kcal/mol for GCACCCCGAAAGGGTTGC (((.(((....))).)))
Given back: Condition not met

Asked: Determine whether measured folding enthalpy meets or exceeds -30 kcal/mol for GTATAACGAAAGTTCTAC (((.(((....))).)))
Given back: Condition met

Asked: Determine whether measured folding enthalpy meets or exceeds -30 kcal/mol for GCGAGGGGAAACCTTCGC ((((.((....)).))))
Given back: Condition not met

Asked: Determine whether measured folding enthalpy meets or exceeds -30 kcal/mol for GATCACCAGGTGATC ((((((...))))))
Given back: Condition met

Asked: Determine whether measured folding enthalpy meets or exceeds -30 kcal/mol for GGTAACGAAAGTTCAACC ((((((....)))..)))
Given back: Condition met

Asked: Determine whether measured folding enthalpy meets or exceeds -30 kcal/mol for GACTTGGGAAACCAAGCC (.(((((....))))).)
Given back: Condition met

Asked: Determine whether measured folding enthalpy meets or exceeds -30 kcal/mol for GCGGGACGCCGC ((((....))))
Given back: Condition met

Asked: Determine whether measured folding enthalpy meets or exceeds -30 kcal/mol for GATCATAAAAATGATC ((((((....))))))
Given back: Condition met

* * *

- PROTOCOL: folding enthalpy; higher = less favourable; fluorescence melt of hairpins on a sequencing array, two-state fit
- RUN PARAMETERS: sodium 0.088 M
Record met whenever folding enthalpy is at -100 kJ/mol or higher; record not met when lower.

Here are 5 sequences together with their reported answers.
# SEQUENCE, CATEGORY
rows = [
    ("CTGTAGAAATACAG (((((....)))))", "met"),
    ("GCAATATCGAAAGATTGC (((..(((....))))))", "not met"),
    ("GGGTGTACGAAAGTACCC (((..(((....))))))", "met"),
    ("GTGCTGGGAAACTGGCAC ((((..(....)..))))", "not met"),
    ("GGATTACGAAAGTACTCC (((.(((....))).)))", "not met"),
]

Asked: Determine whether measured folding enthalpy meets or exceeds -100 kJ/mol for GGTAACGGAAACATTACC (((((.(....).)))))
Given back: met

Asked: Determine whether measured folding enthalpy meets or exceeds -100 kJ/mol for GCCACTGGAAACAGTAGC ((.((((....)))).))
Given back: not met

Asked: Determine whether measured folding enthalpy meets or exceeds -100 kJ/mol for GATCACGGACGTGATC ((((((....))))))
Given back: not met

Asked: Determine whether measured folding enthalpy meets or exceeds -100 kJ/mol for GTGTATGGAAACGTACAC (((((.(....).)))))
Given back: not met

Asked: Determine whether measured folding enthalpy meets or exceeds -100 kJ/mol for GATCAAATATTTGATC ((((((....))))))
Given back: not met

Asked: Determine whether measured folding enthalpy meets or exceeds -100 kJ/mol for GGAGCCGAAAGGCAGTCC ((((((....)))..)))
Given back: met

Asked: Determine whether measured folding enthalpy meets or exceeds -100 kJ/mol for GTGGACGAAAGTCTTCAC ((((((....)))..)))
Given back: met
